experimental_target: T1, exemplary TAT frataxin fusion molecule (HIV-1, UniProt Q16595 1-210)
T1 construct: in the bridging assays biotinylated and sulfotagged forms were used; also called TAT-FXN fusion molecule; TAT FXN fusion molecule
T1 sequence: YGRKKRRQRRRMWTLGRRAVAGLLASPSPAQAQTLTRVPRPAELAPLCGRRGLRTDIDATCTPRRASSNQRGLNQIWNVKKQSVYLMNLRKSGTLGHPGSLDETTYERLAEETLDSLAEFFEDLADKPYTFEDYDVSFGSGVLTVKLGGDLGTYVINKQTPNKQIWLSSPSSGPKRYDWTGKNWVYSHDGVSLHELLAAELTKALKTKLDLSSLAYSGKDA
protocol: PK sandwich ELISA in human plasma, antibody as capture, HRP anti-frataxin mAb detection
The following binders are shown together with reported Mean OD at plasma conc. 6.40 ng/mL values.
Respond numerically; units are OD and should not be typed.

# annotated cases, reported Mean OD at plasma conc. 6.40 ng/mL shown
binder	Mean OD at plasma conc. 6.40 ng/mL / OD
antibody 10-9 (antibody, V domains shown, Rabbit monoclonal) VH: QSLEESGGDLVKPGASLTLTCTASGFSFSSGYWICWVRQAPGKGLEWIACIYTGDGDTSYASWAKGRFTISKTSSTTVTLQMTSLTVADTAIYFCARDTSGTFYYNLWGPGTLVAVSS VL: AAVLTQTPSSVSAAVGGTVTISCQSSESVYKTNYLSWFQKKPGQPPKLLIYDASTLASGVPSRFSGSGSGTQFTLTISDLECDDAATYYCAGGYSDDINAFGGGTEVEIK	0.437
antibody 10-4 (antibody, V domains shown, Rabbit monoclonal) VH: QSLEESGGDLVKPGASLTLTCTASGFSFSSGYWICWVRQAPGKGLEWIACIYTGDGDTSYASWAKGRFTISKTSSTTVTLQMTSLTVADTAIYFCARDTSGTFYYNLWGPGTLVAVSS VL: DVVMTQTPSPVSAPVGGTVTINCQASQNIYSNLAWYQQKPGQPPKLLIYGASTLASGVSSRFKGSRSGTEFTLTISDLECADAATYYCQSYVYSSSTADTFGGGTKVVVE	0.411

# input for lookup
Query :: Would you mind telling me what Mean OD at plasma conc. 6.40 ng/mL value was observed for antibody 12-8 (antibody, V domains shown, Rabbit monoclonal) VH: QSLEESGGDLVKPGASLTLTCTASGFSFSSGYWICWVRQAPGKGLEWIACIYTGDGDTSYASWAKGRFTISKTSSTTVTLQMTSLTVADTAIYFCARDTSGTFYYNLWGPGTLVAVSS VL: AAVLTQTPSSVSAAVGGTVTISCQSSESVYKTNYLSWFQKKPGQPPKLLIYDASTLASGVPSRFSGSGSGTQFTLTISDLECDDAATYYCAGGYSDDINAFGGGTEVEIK ?
Result :: 0.409
